src = ChEMBL document CHEMBL5532662

molecular target: Metallo-beta-lactamase type 2 (Bacteria, UniProt C7C422); assay: biochemical
Sequence (C7C422 whole entry): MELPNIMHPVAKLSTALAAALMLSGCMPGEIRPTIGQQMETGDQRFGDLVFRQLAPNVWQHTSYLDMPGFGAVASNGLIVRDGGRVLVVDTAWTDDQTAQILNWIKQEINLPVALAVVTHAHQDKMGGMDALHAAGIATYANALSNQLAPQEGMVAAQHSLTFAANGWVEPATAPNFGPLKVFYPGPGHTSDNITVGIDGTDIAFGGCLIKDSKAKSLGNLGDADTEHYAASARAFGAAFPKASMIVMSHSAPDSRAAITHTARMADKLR
EXPERIMENTAL_READOUT: pKi
As a rule, pKi stands for the negative log10 of the concentration, concentration in M.

Item: CNCc1ccc(-c2ccc(C(=O)O)c(O)c2)o1 | pKi: 3.30
